Experiment: chemical genetic growth profiling, strain panel (AID 1159580);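 further: tested at 20 µM; growth read once vehicle control cultures reached saturation at 30 °C; 1 = growth at the plate median or of vehicle wells; lower values mean less growth of the strain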
Settings: S. cerevisiae deletion strains, growth OD, locus YOL147C, strain pex11, hits give low values
Hit rate of the full screen: of about 5,500 compounds, about 2,000 (36%) were called active. Roughly 18% stayed inconclusive and do not appear here. Some of the results follow.
ENDPOINT_NAME: normalized growth
The reply should be a number, written without any unit.

Examples with their reported normalized growth follow.
>  <COMPOUND>
CCCCCC(C)N (configuration not stated)

>  <QUANTITATIVE_RESULT>
1

$$$$
>  <COMPOUND>
Cc1ccc(C(=O)C(C)CN2CCCCC2)cc1 (configuration not stated)

>  <QUANTITATIVE_RESULT>
1.01

$$$$
>  <COMPOUND>
COC(=O)[C@H]1[C@H]2C[C@H]3c4[nH]c5ccccc5c4CCN3C[C@H]2CC[C@@H]1O

>  <QUANTITATIVE_RESULT>
1.01

$$$$
>  <COMPOUND>
CC(=O)O[C@]1(C(C)=O)CCC2C3C=C(C)C4=CC(=O)CCC4(C)C3CCC21C (some centres not stated)

>  <QUANTITATIVE_RESULT>
0.981

$$$$
>  <COMPOUND>
O=C(O)C1C(O)CCC2CN3CCc4c([nH]c5ccccc45)C3CC21 (configuration not stated)

>  <QUANTITATIVE_RESULT>
1.02

$$$$

Param item = Cc1c(N(C)C)c(=O)n(-c2ccccc2)n1C ; retrieve measured normalized growth.
0.985

Param item = CC1(O)/C=C/C=C(\CO)C2CC(C)(C)C2(O)CC1 (configuration not stated) ; retrieve measured normalized growth.
1.01

Param item = CCCCOc1ccc(C(=O)CCN2CCCCC2)cc1 ; retrieve measured normalized growth.
0.965

Param item = Nc1nc2[nH]c(=O)c(=O)[nH]c2c(=O)[nH]1 ; retrieve measured normalized growth.
1

Param item = C[N+](C)(C)CC(=O)[O-] ; retrieve measured normalized growth.
1

Param item = COC(=O)COc1cc(Cl)c(Cl)cc1Cl ; retrieve measured normalized growth.
0.964

Param item = CCCCOc1ccc(OCCCN2CCOCC2)cc1 ; retrieve measured normalized growth.
0.962

* * *

Experiment: chemical genetic growth profiling, strain panel (AID 1159580);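 further: tested at 20 µM; growth read once vehicle control cultures reached saturation at 30 °C; 1 = growth at the plate median or of vehicle wells; lower values mean less growth of the strain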
Details: S. cerevisiae deletion strains, growth OD, locus YLL001W, strain dnm1, hits give low values
Out of some 5,500 compounds screened, about 2,000 (36%) were called active. Not shown: some 18% with an inconclusive outcome. The list shows a part of the results.
ENDPOINT_NAME: normalized growth
The reply should be a number, written without any unit.

Examples with their reported normalized growth follow.
>  <MOLECULE>
C=CC1=C(C(=O)O)N2C(=O)[C@@H](NC(=O)/C(=N/O)c3csc(N)n3)[C@H]2SC1

>  <normalized growth>
1.02

$$$$
>  <MOLECULE>
COc1ccc(-c2cc(=O)c3c(O)cc(OC)c(OC)c3o2)c(OC)c1

>  <normalized growth>
1.01

$$$$
>  <MOLECULE>
CCN(CC)C(=S)SSC(=S)N(CC)CC

>  <normalized growth>
0.0613

$$$$
>  <MOLECULE>
CC1(C)C2CC[C@]3(C)C(C(=O)C=C4[C@H]5C[C@@](C)(C(=O)O)CC[C@]5(C)CC[C@]43C)[C@@]2(C)CC[C@@H]1O (some centres undefined)

>  <normalized growth>
0.867

$$$$
>  <MOLECULE>
CC(=O)O[C@]1(C(C)=O)CCC2C3C[C@H](C)C4=CC(=O)CC[C@]4(C)C3CC[C@@]21C (some centres undefined)

>  <normalized growth>
0.894

$$$$

Param item = CC1(C)C2CC[C@]3(C)C(C(=O)C=C4[C@@H]5C[C@@](C)(C(=O)O)CC[C@]5(C)CC[C@]43C)[C@@]2(C)CC[C@@H]1O (some centres undefined) ; retrieve measured normalized growth.
0.952

Param item = COc1ccc(-c2coc3c(OC)c(OC)cc(O)c3c2=O)cc1 ; retrieve measured normalized growth.
1.01

Reference source: PubChem BioAssay AID1159580
